Property: kon; scope: individual binders
Molecular target: T1, human PD-L1 recombinant protein (human, UniProt Q9NZQ7 19-238)
T1 construct: also called recombinant PD-L1 protein; recombinant PD-L1
T1 sequence (Q9NZQ7 19-238 limits assumed): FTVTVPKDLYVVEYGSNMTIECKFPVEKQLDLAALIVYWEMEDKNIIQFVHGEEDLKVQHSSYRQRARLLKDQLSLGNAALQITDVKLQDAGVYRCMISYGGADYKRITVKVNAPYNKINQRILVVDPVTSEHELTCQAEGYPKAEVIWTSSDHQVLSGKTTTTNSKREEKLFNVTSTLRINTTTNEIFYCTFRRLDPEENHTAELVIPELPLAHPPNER
Test: BLI, human PD-L1 recombinant protein

binder: hzF2-m1 (VHH, The parent hzF2 is a VHH-human IgG1 Fc fusion; also called humanized single variable domain antibody hzF2-m1) VHH: EVQLVESGGGLVQPGGSLRLSCAASRDSDDGASSMGWFRQAPGKGLEGVAIIFNAGERTDYGDSVKGRFTISRDNAKNTLYLQMNSLRAEDTAVYYCATVWSGSWVARSWGQGTLVTVSS
output unit: M⁻¹ s⁻¹
kon: 679000

binder: hzF2-m8 (VHH, also called humanized single variable domain antibody hzF2-m8) VHH: EVQLVESGGGLVQPGGSLRLSCAASRDSDDGASCMGWFRQAPGKEREGVAIIFNVGERTDYGDSVKGRFTISRDNAKNTLYLQMNSLRAEDTAVYYCATVWCGSWVARSWGQGTLVTVSS
output unit: M⁻¹ s⁻¹
kon: 356000

Reference for the values: patent US20230279115A1
